Hey, just so you know, these numbers are from patent US20260174875A1.

Target: human GIP receptor (hGIPR) (Homo sapiens, UniProt P48546)
Construct: expressed in transfected cells
Sequence (P48546 22-466): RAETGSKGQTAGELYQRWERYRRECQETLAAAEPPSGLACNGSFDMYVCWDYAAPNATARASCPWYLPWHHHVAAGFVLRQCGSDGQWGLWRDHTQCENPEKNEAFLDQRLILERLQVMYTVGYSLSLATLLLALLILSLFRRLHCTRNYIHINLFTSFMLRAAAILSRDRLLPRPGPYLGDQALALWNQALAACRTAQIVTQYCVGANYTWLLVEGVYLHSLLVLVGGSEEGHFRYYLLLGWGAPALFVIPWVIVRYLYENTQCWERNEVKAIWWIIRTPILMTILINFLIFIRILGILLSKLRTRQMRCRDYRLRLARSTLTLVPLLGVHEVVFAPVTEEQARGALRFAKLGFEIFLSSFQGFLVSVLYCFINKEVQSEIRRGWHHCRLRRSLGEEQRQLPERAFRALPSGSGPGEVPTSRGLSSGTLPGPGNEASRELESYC
Test: GIP receptor assay, method A (CRE-luciferase reporter, BHK cells)
Type: cell-based
Details: hGIPR Potency, 1% HSA, EC50, method A, in the presence of 1% HSA
Numbered stars: 1 amine (or outer) side, 2 acyl side, 3 side chain; on linkers, the order of the positions; unused ones are H or OH. Square brackets hold non-standard residues; d marks the D form. Side chains are listed from the residue outwards. * marks the point of attachment. C18 diacid = O=C(O)CCCCCCCCCCCCCCCCC(=O)*; C16 diacid = O=C(O)CCCCCCCCCCCCCCC(=O)*; γGlu = O=C(O)[C@H](CCC(=O)[*:2])N[*:1]; AEEA = NCCOCCOCC(=O)O; Aib = CC(C)(N)C(=O)O
Exam item: assign 1 to entries whose EC50 is below 0.03 nM and 0 to entries at or above 0.03 nM. Note that a value of exactly 0.03 nM receives 0.

Answered examples (3):
{"SUBSTANCE": "H[Aib]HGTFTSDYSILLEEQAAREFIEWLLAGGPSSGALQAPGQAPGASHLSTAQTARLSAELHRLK([AEEA-AEEA-γGlu-C18 diacid])TLPRTETGSGSP-NH2 [Compound 106]", "ASSIGNED LABEL": 1}
{"SUBSTANCE": "Y[Aib]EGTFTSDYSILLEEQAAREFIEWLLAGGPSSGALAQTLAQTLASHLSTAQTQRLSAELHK([AEEA-AEEA-γGlu-C16 diacid])LATLPRTETGSGSP-NH2 [Compound 59]", "ASSIGNED LABEL": 1}
{"SUBSTANCE": "Y[Aib]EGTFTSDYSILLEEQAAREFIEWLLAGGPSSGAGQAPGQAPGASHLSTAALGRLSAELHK([AEEA-AEEA-γGlu-C18 diacid])LATLPRTETGSGSP-NH2 [Compound 53]", "ASSIGNED LABEL": 1}

// switching to the query substance
Q. State whether 0.03 nM exceeds EC50 recorded for H[Aib]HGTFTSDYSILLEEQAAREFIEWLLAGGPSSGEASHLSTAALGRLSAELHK([AEEA-AEEA-γGlu-C18 diacid])LATLPRTETGSGSP-NH2 [Compound 88] .
A. 0
